Each record here notes measured P. berghei T-C.
system: P. berghei (strain KBG 173); experiment: In vivo activity against P. berghei in mice, single subcutaneous dose 3 days after infection; design: species or system Plasmodium berghei; mice; details: 160 mg/kg s.c., single dose 3 days post infection, n = 5

Compound	P. berghei T-C (days)
Clc1ccc2c(NCCCCCNc3ccnc4cc(Cl)ccc34)ccnc2c1	5.1
Clc1ccc2c(NCCNc3ccnc4cc(Cl)ccc34)ccnc2c1	0.4
Clc1ccc2c(NCCCCCCCCCCCCNc3ccnc4cc(Cl)ccc34)ccnc2c1	-0.2
Clc1ccc2c(NCCCCCCCCCNc3ccnc4cc(Cl)ccc34)ccnc2c1	7.4
Clc1ccc2c(NCCCCCCCCCCNc3ccnc4cc(Cl)ccc34)ccnc2c1	0.2
Clc1ccc2c(NCCCCCCCNc3ccnc4cc(Cl)ccc34)ccnc2c1	7.2
CC(CNc1ccnc2cc(Cl)ccc12)Nc1ccnc2cc(Cl)ccc12 (stereo not drawn)	5.7
Clc1ccc2c(NCCCCCCNc3ccnc4cc(Cl)ccc34)ccnc2c1	3.9
Clc1ccc2c(NCCCNc3ccnc4cc(Cl)ccc34)ccnc2c1	0.4
Clc1ccc2c(NCCCCNc3ccnc4cc(Cl)ccc34)ccnc2c1	2.3
Clc1ccc2c(NCCCCCCCCNc3ccnc4cc(Cl)ccc34)ccnc2c1	1.0
CC(CCCNc1ccnc2cc(Cl)ccc12)CNc1ccnc2cc(Cl)ccc12 (stereo not drawn)	3.6

====

Examples of compounds with documented P. berghei T-C follow.
test system: P. berghei (strain KBG 173); experiment: In vivo activity against P. berghei in mice, single subcutaneous dose 3 days after infection; parameters: species or system Plasmodium berghei; mice; details: 40 mg/kg s.c., single dose 3 days post infection, n = 5

Compound	P. berghei T-C
Clc1ccc2c(NCCCCCCCCCCCCNc3ccnc4cc(Cl)ccc34)ccnc2c1	0.0 days
Clc1ccc2c(NCCCCCCCCCCNc3ccnc4cc(Cl)ccc34)ccnc2c1	0.2 days
Clc1ccc2c(NCCCCCCCCNc3ccnc4cc(Cl)ccc34)ccnc2c1	-0.2 days
CC(CCCNc1ccnc2cc(Cl)ccc12)CNc1ccnc2cc(Cl)ccc12 (stereo not shown)	1.2 days
Clc1ccc2c(NCCCCCCCCCNc3ccnc4cc(Cl)ccc34)ccnc2c1	3.1 days
Clc1ccc2c(NCCCCCCNc3ccnc4cc(Cl)ccc34)ccnc2c1	0.4 days
Clc1ccc2c(NCCCCCCCNc3ccnc4cc(Cl)ccc34)ccnc2c1	2.6 days
Clc1ccc2c(NCCCNc3ccnc4cc(Cl)ccc34)ccnc2c1	0.2 days
Clc1ccc2c(NCCNc3ccnc4cc(Cl)ccc34)ccnc2c1	0.0 days
Clc1ccc2c(NCCCCCNc3ccnc4cc(Cl)ccc34)ccnc2c1	1.0 days
Clc1ccc2c(N[C@@H]3CCCC[C@H]3Nc3ccnc4cc(Cl)ccc34)ccnc2c1 (relative stereo)	8.5 days
CC(CNc1ccnc2cc(Cl)ccc12)Nc1ccnc2cc(Cl)ccc12 (stereo not shown)	3.4 days
Clc1ccc2c(NCCCCNc3ccnc4cc(Cl)ccc34)ccnc2c1	0.5 days

====

tested on: P. falciparum; experiment: In vitro activity against P. falciparum (both clones, D-6 and W-2); type: cell-based, Plasmodium falciparum; conditions: IC50 (W2)/IC50 (D6) ratio
Reported Endpoint: Resistance Index

Compound	Endpoint Value
Clc1ccc2c(NCCCCCCCCCNc3ccnc4cc(Cl)ccc34)ccnc2c1	0.8
Clc1ccc2c(NCCCCCCNc3ccnc4cc(Cl)ccc34)ccnc2c1	1.1
Clc1ccc2c(NCCCCCNc3ccnc4cc(Cl)ccc34)ccnc2c1	1.5
Clc1ccc2c(NCCCCCCCCCCNc3ccnc4cc(Cl)ccc34)ccnc2c1	0.6
CC(CCCNc1ccnc2cc(Cl)ccc12)CNc1ccnc2cc(Cl)ccc12 (stereo not drawn)	1.1
Clc1ccc2c(N3CCN(CCCN4CCN(c5ccnc6cc(Cl)ccc56)CC4)CC3)ccnc2c1	1.9
Clc1ccc2c(NCCCCCCCCNc3ccnc4cc(Cl)ccc34)ccnc2c1	0.6
Clc1ccc2c(N[C@@H]3CCCC[C@H]3Nc3ccnc4cc(Cl)ccc34)ccnc2c1 (relative stereo)	1.4
Clc1ccc2c(NCCNc3ccnc4cc(Cl)ccc34)ccnc2c1	1.6
Clc1ccc2c(NCCCCNc3ccnc4cc(Cl)ccc34)ccnc2c1	0.2
Clc1ccc2c(NCCCCCCCCCCCCNc3ccnc4cc(Cl)ccc34)ccnc2c1	0.5
Clc1ccc2c(NCCCCCCCNc3ccnc4cc(Cl)ccc34)ccnc2c1	2.3
CCN(CC)CCCC(C)Nc1ccnc2cc(Cl)ccc12 (stereo not drawn) [CQ, chloroquine, reference compound]	11.2
CC(CNc1ccnc2cc(Cl)ccc12)Nc1ccnc2cc(Cl)ccc12 (stereo not drawn)	1.1
Clc1ccc2c(NCCCNc3ccnc4cc(Cl)ccc34)ccnc2c1	5.5

====

tested on: P. berghei (strain KBG 173); experiment: In vivo activity against P. berghei in mice, single subcutaneous dose 3 days after infection; parameters: species or system Plasmodium berghei; mice; conditions: 640 mg/kg s.c., single dose 3 days post infection, n = 5
P. berghei T-C vs 1 days: at or above is satisfied, below is not satisfied.

Smiles String	Label Value
Clc1ccc2c(NCCNc3ccnc4cc(Cl)ccc34)ccnc2c1	satisfied
Clc1ccc2c(NCCCCCCCCCCNc3ccnc4cc(Cl)ccc34)ccnc2c1	not satisfied
Clc1ccc2c(NCCCCCCCCCCCCNc3ccnc4cc(Cl)ccc34)ccnc2c1	not satisfied
Clc1ccc2c(NCCCNc3ccnc4cc(Cl)ccc34)ccnc2c1	satisfied
Clc1ccc2c(NCCCCNc3ccnc4cc(Cl)ccc34)ccnc2c1	satisfied
